Quick reference for Phytotoxicity, Oryza sativa, Seed among some compounds
Test system: Oryza sativa
method notes: Phytotoxicity to rice (direct-seeded and transplanted) in paddy condition, greenhouse pot test
Type: in vivo
setup conditions: 40 g/ha; direct-seeded rice, treated 5 days after sowing; visual rating after two weeks
Numbers only; they are read as %.

Check out these entries, answers already filled in.
>>> quantitative_result("COCC(=O)O[C@H](c1nccc(Cl)c1S(=O)(=O)NC(=O)Nc1nc(OC)cc(OC)n1)[C@H](C)F")
20
>>> quantitative_result("COc1cc(OC)nc(NC(=O)NS(=O)(=O)c2cccnc2[C@@H](OC(C)=O)[C@H](C)F)n1 [Standard Compound D, reference compound]")
30

# input for lookup
Could you tell me which Phytotoxicity, Oryza sativa, Seed is on file for COCC(=O)O[C@H](c1nccc(Br)c1S(=O)(=O)NC(=O)Nc1nc(OC)cc(OC)n1)[C@H](C)F ?
10

----------
Test system: Oryza sativa
method notes: Phytotoxicity to rice (direct-seeded and transplanted) in paddy condition, greenhouse pot test
Type: in vivo
setup conditions: 10 g/ha; transplanted rice seedlings, treated 5 days after transplanting; visual rating after two weeks
measured parameter: Phytotoxicity, Oryza sativa, Transplanted (%)
Numbers only; they are read as %.

Check out these entries, answers already filled in.
>>> quantitative_result("COc1cc(OC)nc(NC(=O)NS(=O)(=O)c2ccccc2[C@@H](OC(C)=O)[C@H](C)F)n1 [Standard Compound B, reference compound]")
20
>>> quantitative_result("COc1cc(OC)nc(NC(=O)NS(=O)(=O)c2ccccc2[C@@H](O)[C@H](C)F)n1 [Standard Compound A, reference compound]")
20
>>> quantitative_result("CCOC(=O)c1cnn(C)c1S(=O)(=O)NC(=O)Nc1nc(OC)cc(OC)n1 [Standard Compound E, Pyrazosulfuron-ethyl, reference compound]")
0

# input for lookup
Param readout= Phytotoxicity, Oryza sativa, Transplanted; system= Oryza sativa; entry= COCC(=O)O[C@H](c1ncccc1S(=O)(=O)NC(=O)Nc1nc(OC)cc(OC)n1)[C@H](C)F [Com. 2] ; returns value.
0

----------
Quick reference for pest or weed control at 5 g/ha among some compounds
System: Echinochloa crus-galli
method notes: Herbicidal activity to barnyardgrass in paddy condition, pre- and post-emergence, greenhouse pot test
Format: in vivo
setup conditions: Echinochloa crus-galli, 336 h; 5 g/ha; pre-emergence (5 days after sowing); visual rating after two weeks; read-out: Herbicidal activity, Echinochloa crus-galli, Pre-emergence
Numbers only; they are read as %.

Check out these entries, answers already filled in.
>>> quantitative_result("COCC(=O)O[C@H](c1ncccc1S(=O)(=O)NC(=O)Nc1nc(OC)cc(OC)n1)[C@H](C)F")
60
>>> quantitative_result("COc1cc(OC)nc(NC(=O)NS(=O)(=O)c2cccnc2[C@@H](OC(C)=O)[C@H](C)F)n1 [Standard Compound D, reference compound]")
30

# input for lookup
Param readout= pest or weed control at 5 g/ha; system= Echinochloa crus-galli; entry= COCC(=O)O[C@H](c1nccc(Br)c1S(=O)(=O)NC(=O)Nc1nc(OC)cc(OC)n1)[C@H](C)F ; returns value.
60

----------
Quick reference for Phytotoxicity, Oryza sativa, Transplanted among some compounds
Tested on: Oryza sativa
method notes: Phytotoxicity to rice (direct-seeded and transplanted) in paddy condition, greenhouse pot test
Assay type: in vivo
setup conditions: 10 g/ha; transplanted rice seedlings, treated 5 days after transplanting; visual rating after two weeks
Numbers only; they are read as %.

>>> quantitative_result("COc1cc(OC)nc(NC(=O)NS(=O)(=O)c2cccnc2[C@@H](OC(C)=O)[C@H](C)F)n1 [Standard Compound D, reference compound]")
0
>>> quantitative_result("COCC(=O)O[C@H](c1nccc(C)c1S(=O)(=O)NC(=O)Nc1nc(OC)cc(OC)n1)[C@H](C)F")
0

# input for lookup
Param readout= Phytotoxicity, Oryza sativa, Transplanted; system= Oryza sativa; entry= COc1cc(OC)nc(NC(=O)NS(=O)(=O)c2cccnc2[C@@H](O)[C@H](C)F)n1 [Standard Compound C, reference compound] ; returns value.
10
